Reference source for all entries: the supplement of paper PMC8612539

- Test system: Enterococcus spp.
- protocol-description: minimum inhibitory concentration (MIC)
- run-conditions: isolate (source animal id): 250
Listed compounds paired with reported minimum inhibitory concentration
value-kind: minimum inhibitory concentration (µg/mL)

cpd_smiles=CCN1CCN(c2cc3c(cc2F)c(=O)c(C(=O)O)cn3C2CC2)CC1 tested_target="Enterococcus spp." u=µg/mL readout_relation== endpoint_result=0.25
cpd_smiles=COc1cc(NS(=O)(=O)c2ccc(N)cc2)nc(OC)n1 tested_target="Enterococcus spp." u=µg/mL readout_relation=> endpoint_result=256
cpd_smiles=CCC[C@@H]1C[C@@H](C(=O)N[C@@H]([C@H]2O[C@H](SC)[C@H](O)[C@@H](O)[C@H]2O)[C@H](C)Cl)N(C)C1 tested_target="Enterococcus spp." u=µg/mL readout_relation== endpoint_result=16
cpd_smiles=CC1(C)S[C@@H]2[C@H](NC(=O)[C@H](N)c3ccccc3)C(=O)N2[C@H]1C(=O)O tested_target="Enterococcus spp." u=µg/mL readout_relation== endpoint_result=0.5
